- measured.on: HIV-1 Env of DU156.12 (HIV-1)
- experimental.details: cell-based or functional assay
neutralization IC50 overview

Data request: What value of neutralization IC50 has been reported for the following binder? CAP256-VRC26.04 (antibody, V domains shown) VH: EVQLVESGGGVVQPGKSLRLSCAASQFSFNRYGMHWVRQAPGKGLEWVAAISYDGTDKYHADKVWGRFTISRDNSKNTLYLQMNSLRAEDTALYYCAKDLREDECEEWWSDYYDFGKQLPCRKSRGVAGIFDKWGQGTMVIVSS VL: QPVLTQPPSVSAAPGQKVTISCSGSSSNIGNNFVSWYQQRPGTAPSLLIYETNKRPSGIPDRFSGSKSATSATLAITGLQTGDEADYYCATWAASLTSARVFGTGTKVIVSG
Data returned: 10.4 µg/mL

Further cases:
Data request: What value of neutralization IC50 has been reported for the following binder? CAP256-VRC26.09 (antibody, V domains shown) VH: EVQLVESGGGVVQPGRSLTLSCAASQFNFANYGMHWVRQAPGKGLEWVASISNDGTKKYHEESVWGRFTISKDNSKSTLFLQMNSLRIEDTALYFCVKDQREDECEEWWSDYYDFGRELPCRKSRGLGLAGIFDMWGHGTMVTVSS VL: QSALTQPPSVSAAPGQKVTISCSGNSSNIGNNFVSWYQQLPGTAPKLLIYENNRRPSGIPDRFSGSKSGTSATLAISGLQTGDEADYWCAVWGVRRGAGAVFGAGTKVTVLG
Data returned: 0.016 µg/mL

Source: patent US20200199204A1
